system: L929AsFas cells; assay: Anti-necroptotic effect, L929AsFas cells, FasL + zVAD, FACS of propidium iodide-stained nuclei; assay type: cell-based; settings: 1 h pretreatment, cell death after 24 h
READOUT KIND: EC50 (µM)
Respond numerically; units are µM and should not be typed.

Fill in the blank: the reported EC50 of Oc1ccc(-c2cc3cccnc3[nH]2)cc1 [compound 2, 4-(1H-pyrrolo[2,3-b]pyridin-2-yl)phenol] is ____.
2.4

* * *

Tested on: U937 cells
Assay: Anti-necroptotic effect, U937 cells, TRAIL + zVAD, FACS of propidium iodide-stained nuclei
Format: cell-based
Settings: Homo sapiens, U-937, 1 h pretreatment, cell death after 24 h
Description: L929 cells, L929AsFas cells, Jurkat FADD-deficient cells (Jurkat FADD^−/−), U937 cells are pretreated for 1 h with increased concentrations of Sib (0, 5, 10, 20 μM) and then treated respectively with TNF-α (10 ng/ml)+zVAD (20 μM), FasL (200 ng/ml)+zVAD (20 μM), TNF-α (10 ng/ml), TRAIL (200 ng/ml)+zVAD (30 μM) or TRAIL (200 ng/ml)+zVAD (30 μM)+CHX (1 μg/ml). % of cell death is determined after 24 h and calculated by a FACS analysis of Propidium Iodide-stained nuclei. […]
READOUT KIND: pEC50
FYI, pEC50 means -log10 of a concentration in mol per litre.

Fill in the blank: the reported pEC50 of Oc1ccc(-c2cc3cccnc3[nH]2)cc1 [compound 2, 4-(1H-pyrrolo[2,3-b]pyridin-2-yl)phenol] is ____.
5.40
